log10 of IC50 reference
Biological target: p38 MAPKα isoform (MAPK14) (Homo sapiens (Human))
Sequence (Q16539 whole entry, canonical isoform): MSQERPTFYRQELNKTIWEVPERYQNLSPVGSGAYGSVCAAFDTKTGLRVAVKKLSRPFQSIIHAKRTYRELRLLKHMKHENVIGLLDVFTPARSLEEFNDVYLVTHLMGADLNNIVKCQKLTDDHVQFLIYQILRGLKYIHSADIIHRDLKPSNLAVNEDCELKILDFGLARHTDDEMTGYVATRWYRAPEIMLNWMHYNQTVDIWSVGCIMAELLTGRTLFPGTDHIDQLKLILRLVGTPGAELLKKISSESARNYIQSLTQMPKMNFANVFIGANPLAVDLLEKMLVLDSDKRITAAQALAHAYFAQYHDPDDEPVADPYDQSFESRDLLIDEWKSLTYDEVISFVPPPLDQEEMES
Assay: p38 MAPKα enzyme inhibition (FRET, Z-LYTE, Method 2)
Note: values are log10 of IC50 expressed in nM.

{"Compound": "COCCOCCOCCNC(=O)c1cc(Nc2cc(Oc3ccc(NC(=O)Nc4cc(C(C)(C)C)cc(CNC(=O)CN(C)C)c4OC)c4ccccc34)ccn2)cc(OC)c1", "Experimental Result": 1.30}
{"Compound": "COc1c(NC(=O)Nc2ccc(Oc3ccnc(Nc4cc(C#N)cc(OCCCN5CCOCC5)c4)c3)c3ccccc23)cc(C(C)(C)C)cc1[S+](C)[O-] (stereo not drawn) [79(e)]", "Experimental Result": 2.43}
{"Compound": "COc1cccc(Nc2cc(Oc3ccc(NC(=O)Nc4cc(C(C)(C)C)cc(CNC(C)=O)c4OC)c4ccccc34)ccn2)c1", "Experimental Result": 2.11}
{"Compound": "COc1cc(Nc2cc(Oc3ccc(NC(=O)Nc4cc(C(C)(C)C)cc(CC(N)=O)c4OC)c4ccccc34)ccn2)cc(S(=O)(=O)C2CC2)c1", "Experimental Result": 1.94}
{"Compound": "COc1c(CP(C)(C)=O)cc(C(C)(C)C)cc1NC(=O)Nc1ccc(Oc2ccnc(Nc3ccccc3)c2)c2ccccc12", "Experimental Result": 2.34}

// switching to the query compound
So, "COCCOCCOCCNC(=O)c1cc(C(C)(C)C)cc(NC(=O)Nc2ccc(Oc3ccnc(Nc4cc(OC)cc(OCCOCCOCCOC)c4)n3)c3ccccc23)c1OC" ? Its log10 of IC50 was 2.03

###

Tested on: PBMCs
Assay: IL-2 release in CD3/CD28 stimulated PBMC cells (assay c)
Type: cell-based
Details: Homo sapiens, read-out: IC50 Values for Inhibition of Cytokine Release, PBMCs IL-2
Measured Parameter: IC50 (nM)
Output spec: scalar in nM, unitless text.

Examples with answers:
{"Compound": "COc1cc(Nc2cc(Oc3ccc(NC(=O)Nc4cc(C(C)(C)C)cc([S+](C)[O-])c4OC)c4ccccc34)ccn2)ccc1C(=O)NCCN1CCOCC1 (stereo not drawn) [Example 72]", "Experimental Result": 156}
{"Compound": "COc1cc(Nc2cc(Oc3ccc(NC(=O)Nc4cc(C(C)(C)C)cc(OCCO)c4OC)c4ccccc34)ccn2)cc(C(N)=O)c1 [Example 57]", "Experimental Result": 92.9}
{"Compound": "COCCOCCOCCOc1cc(Nc2nccc(Oc3ccc(NC(=O)Nc4cc(C(C)(C)C)cc(P(C)(C)=O)c4OC)c4ccccc34)n2)cc(OC)c1 [Example 1]", "Experimental Result": 61.2}
{"Compound": "COc1c(CNC(C)=O)cc(C(C)(C)C)cc1NC(=O)Nc1ccc(Oc2ccnc(Nc3ccccc3)c2)c2ccccc12 [Example 35]", "Experimental Result": 221}
{"Compound": "COc1c(CC(N)=O)cc(C(C)(C)C)cc1NC(=O)Nc1ccc(Oc2ccnc(Nc3cccc(OS(C)(=O)=O)c3)c2)c2ccccc12 [38(r)]", "Experimental Result": 153}

I looked up COc1cc(Nc2cc(Oc3ccc(NC(=O)Nc4cc(C(C)(C)C)cc(S(C)(=O)=O)c4OC)c4ccccc34)ccn2)cc(C(=O)NCCN2CC[S+]([O-])CC2)c1 [38(an)] and its IC50 for PBMCs was 81.8

###

Molecular target: p38 MAPKα isoform (MAPK14) (Homo sapiens (Human))
Experiment: p38 MAPKα enzyme inhibition (FRET, Z-LYTE, Method 2)
Measured Parameter: pIC50
// pIC50 here means minus log10 of the molar concentration (mol/L)

Examples with answers:
{"Molecule": "COc1cc(Nc2cc(Oc3ccc(NC(=O)Nc4cc(C(C)(C)C)cc(CNC(C)=O)c4OC)c4ccccc34)ccn2)cc(OC)c1 [Example 44]", "System": "p38 MAPKα isoform (MAPK14) (Homo sapiens (Human))", "Experimental Result": 6.76}
{"Molecule": "COc1cncc(Nc2cc(Oc3ccc(NC(=O)Nc4cc(C(C)(C)C)cc(CC(N)=O)c4OC)c4ccccc34)ccn2)c1 [38(n)]", "System": "p38 MAPKα isoform (MAPK14) (Homo sapiens (Human))", "Experimental Result": 7.37}
{"Molecule": "COc1cc(Nc2cc(Oc3ccc(NC(=O)Nc4cc(C(C)(C)C)cc(P(C)(C)=O)c4OC)c4ccccc34)ccn2)cc(S(=O)(=O)N(C)CCN2CCOCC2)c1 [Example 75]", "System": "p38 MAPKα isoform (MAPK14) (Homo sapiens (Human))", "Experimental Result": 6.87}
{"Molecule": "COc1c(NC(=O)Nc2ccc(Oc3ccnc(Nc4cc(C#N)cc(OCCN5CCOCC5)c4)c3)c3ccccc23)cc(C(C)(C)C)cc1[S+](C)[O-] (stereo not shown) [Example 51]", "System": "p38 MAPKα isoform (MAPK14) (Homo sapiens (Human))", "Experimental Result": 6.80}
{"Molecule": "COc1cc(Nc2cc(Oc3ccc(NC(=O)Nc4cc(C(C)(C)C)cc([S+](C)[O-])c4OC)c4ccccc34)ccn2)cc(C(N)=O)c1 (stereo not shown) [Example 55]", "System": "p38 MAPKα isoform (MAPK14) (Homo sapiens (Human))", "Experimental Result": 7.42}
{"Molecule": "COc1cc(Nc2cc(Oc3ccc(NC(=O)Nc4cc(C(C)(C)C)cc(CC(N)=O)c4OC)c4ccccc34)ccn2)cc(C(=O)NCC(CO)(CO)CO)c1 [38(al)]", "System": "p38 MAPKα isoform (MAPK14) (Homo sapiens (Human))", "Experimental Result": 7.36}
{"Molecule": "COc1c(NC(=O)Nc2ccc(Oc3ccnc(Nc4ccccc4)c3)c3ccccc23)cc(C(C)(C)C)cc1S(C)(=O)=O [15(m)]", "System": "p38 MAPKα isoform (MAPK14) (Homo sapiens (Human))", "Experimental Result": 6.13}
{"Molecule": "COc1cccc(Nc2cc(Oc3ccc(NC(=O)Nc4cc(C(C)(C)C)cc([S+](C)[O-])c4OC)c4ccccc34)ccn2)c1 (stereo not shown) [Example 41]", "System": "p38 MAPKα isoform (MAPK14) (Homo sapiens (Human))", "Experimental Result": 6.75}
{"Molecule": "COCCOCCOCCNC(=O)c1cc(Nc2cc(Oc3ccc(NC(=O)Nc4cc(C(C)(C)C)cc(CNC(C)=O)c4OC)c4ccccc34)ccn2)cc(OC)c1 [38(y)]", "System": "p38 MAPKα isoform (MAPK14) (Homo sapiens (Human))", "Experimental Result": 7.68}
{"Molecule": "COCCOCCOCCOc1cc(Nc2cc(Oc3ccc(NC(=O)Nc4cc(C(C)(C)C)cc([S+](C)[O-])c4OC)c4ccccc34)ccn2)cc(OC)c1 (stereo not shown) [Example 17]", "System": "p38 MAPKα isoform (MAPK14) (Homo sapiens (Human))", "Experimental Result": 7.17}

So, COCCOCCOCCOc1cc(Nc2nccc(Oc3ccc(NC(=O)Nc4cc(C(C)(C)C)cc(OCP(C)(C)=O)c4OC)c4ccccc34)n2)cc(OC)c1 [Example 6] ? Its pIC50 was 6.68

So, COc1cc(Nc2cc(Oc3ccc(NC(=O)Nc4cc(C(C)(C)C)cc(C(=O)NCCN5CCOCC5)c4OC)c4ccccc34)ccn2)cc(C(N)=O)c1 [Example 61] ? Its pIC50 was 6.68

So, COCCOCCOCCOc1cc(Nc2cc(Oc3ccc(NC(=O)Nc4cc(C(C)(C)C)cc(P(C)(C)=O)c4)c4ccccc34)ccn2)cc(OC)c1 [Example 10] ? Its pIC50 was 7.35

So, COCCOCCOCCNC(=O)c1cc(Nc2cc(Oc3ccc(NC(=O)Nc4cc(C(C)(C)C)cc(CC(N)=O)c4OC)c4ccccc34)ccn2)cc(OC)c1 [Example 53] ? Its pIC50 was 7.92

So, COc1cccc(Nc2cc(Oc3ccc(NC(=O)Nc4cc(C(C)(C)C)cc(CC(N)=O)c4OC)c4ccccc34)ccn2)c1 [Example 33] ? Its pIC50 was 6.96

###

Reported values: IC50 for GSK 3α (Homo sapiens (Human)), one per item.

Examples with answers:
{"Molecule": "COc1c(NC(=O)Nc2ccc(Oc3ccnc(Nc4cnn(C)n4)c3)c3ccccc23)cc(C(C)(C)C)cc1P(C)(C)=O [15(ar)]", "IC50": "356 nM"}
{"Molecule": "COc1cc(Nc2cc(Oc3ccc(NC(=O)Nc4cc(C(C)(C)C)cc(C(=O)NCCN5CC[S+]([O-])CC5)c4OC)c4ccccc34)ccn2)cc(OC)c1 [Example 64]", "IC50": "9390 nM"}
{"Molecule": "COc1cc(Nc2cc(Oc3ccc(NC(=O)Nc4cc(C(C)(C)C)cc(CNC(C)=O)c4OC)c4ccccc34)ccn2)cc(C(=O)NCCN2CC[S+]([O-])CC2)c1 [Example 71]", "IC50": "1200 nM"}
{"Molecule": "COCCOCCOCCOc1cc(Nc2nccc(Oc3ccc(NC(=O)Nc4cc(C(C)(C)C)cc(C(=O)NCCN5CCOCC5)c4OC)c4ccccc34)n2)cc(OC)c1 [Example 8]", "IC50": "788 nM"}
{"Molecule": "COc1c(NC(=O)Nc2ccc(Oc3ccnc(N[C@@H]4CCOC4)n3)c3ccccc23)cc(C(C)(C)C)cc1P(C)(C)=O [15(ai)]", "IC50": "127 nM"}
{"Molecule": "COc1c(NC(=O)Nc2ccc(Oc3ccnc(Nc4ccccc4)n3)c3ccccc23)cc(C(C)(C)C)cc1C(=O)NCCN1CCOCC1 [15(p)]", "IC50": "1950 nM"}

So, COCCOCCOCCNC(=O)c1cc(Nc2cc(Oc3ccc(NC(=O)Nc4cc(C(C)(C)C)cc(CC(N)=O)c4OC)c(Cl)c3Cl)ccn2)cc(OC)c1 [38(ag)] ? Its IC50 was 370 nM

So, COc1c(NC(=O)Nc2ccc(Oc3ccnc(NCc4ccccn4)n3)c3ccccc23)cc(C(C)(C)C)cc1P(C)(C)=O [Example 32] ? Its IC50 was 988 nM

So, COCCOCCOCCNC(=O)c1cc(Nc2cc(Oc3ccc(NC(=O)Nc4cc(C(C)(C)C)cc(C[S+](C)[O-])c4OC)c4ccccc34)ccn2)cc(OC)c1 (stereo not shown) [38(z)] ? Its IC50 was 789 nM

So, COc1c(CC(N)=O)cc(C(C)(C)C)cc1NC(=O)Nc1ccc(Oc2ccnc(Nc3cccc(OS(C)(=O)=O)c3)c2)c2ccccc12 [38(r)] ? Its IC50 was 2210 nM

So, COc1c(NC(=O)Nc2ccc(Oc3ccnc(Nc4ccc5c(c4)NC(=O)C5)n3)c3ccccc23)cc(C(C)(C)C)cc1P(C)(C)=O [15(v)] ? Its IC50 was 302 nM

So, COc1cc(CO)cc(Nc2cc(Oc3ccc(NC(=O)Nc4cc(C(C)(C)C)cc(CC(N)=O)c4OC)c4ccccc34)ccn2)c1 [38(m)] ? Its IC50 was 3380 nM

So, COc1c(NC(=O)Nc2ccc(Oc3ccnc(Nc4cncnc4)n3)c3ccccc23)cc(C(C)(C)C)cc1P(C)(C)=O [15(r)] ? Its IC50 was 188 nM

So, COc1c(CC(N)=O)cc(C(C)(C)C)cc1NC(=O)Nc1ccc(Oc2ccnc(Nc3cc(OCCN4CCOCC4)cc(C(F)(F)F)c3)c2)c2ccccc12 [38(w)] ? Its IC50 was > 12700 nM

So, COc1cc(Nc2cc(Oc3ccc(NC(=O)Nc4cc(C(C)(C)C)cc(CC(N)=O)c4OC)c4ccccc34)ccn2)cc(C(N)=O)c1 [Example 47] ? Its IC50 was 1460 nM

So, COCCOCCOCCOc1cc(Nc2cc(Oc3ccc(NC(=O)Nc4cc(C(C)(C)C)cc(P(C)(C)=O)c4)c4ccccc34)ccn2)cc(OC)c1 [Example 10] ? Its IC50 was > 8340 nM

So, COc1cc(Nc2cc(Oc3ccc(NC(=O)Nc4cc(C(C)(C)C)cc([S+](C)[O-])c4OC)c4ccccc34)ccn2)cc(C(=O)NCCN2CCOCC2)c1 (stereo not shown) [Example 46] ? Its IC50 was 2060 nM

So, COc1cc(Nc2nccc(Oc3ccc(NC(=O)Nc4cc(C(C)(C)C)cc(C(=O)NCCN5CCOCC5)c4OC)c4ccccc34)n2)cc(C(=O)NCCN2CCOCC2)c1 [38(ak)] ? Its IC50 was 461 nM

So, CC(C)(C)c1cc(NC(=O)Nc2ccc(Oc3ccnc(Nc4ccccc4)c3)c3ccccc23)c(O)c(P(C)(C)=O)c1 [Example 39] ? Its IC50 was > 12600 nM

So, COc1cc(Nc2cc(Oc3ccc(NC(=O)Nc4cc(C(C)(C)C)cc(CNC(C)=O)c4OC)c4ccccc34)ccn2)cc(C(N)=O)c1 [38(ac)] ? Its IC50 was 834 nM

So, COc1cncc(Nc2cc(Oc3ccc(NC(=O)Nc4cc(C(C)(C)C)cc(CC(N)=O)c4OC)c4ccccc34)ccn2)c1 [38(n)] ? Its IC50 was 1200 nM

So, COc1c(CNC(C)=O)cc(C(C)(C)C)cc1NC(=O)Nc1ccc(Oc2ccnc(Nc3cc(C)cc(C)c3)c2)c2ccccc12 [38(p)] ? Its IC50 was > 15800 nM

So, COc1cc(Nc2cc(Oc3ccc(NC(=O)Nc4cc(C(C)(C)C)cc(S(C)(=O)=O)c4OC)c4ccccc34)ccn2)cc(C(=O)NCCN2CCOCC2)c1 [Example 54] ? Its IC50 was > 5020 nM

So, COc1cc(Nc2cc(Oc3ccc(NC(=O)Nc4cc(C(C)(C)C)cc(P(C)(C)=O)c4OC)c4ccccc34)ccn2)ccc1C(=O)NCCN1CCOCC1 [38(ao)] ? Its IC50 was 3270 nM

So, COc1c(CS(C)(=O)=O)cc(C(C)(C)C)cc1NC(=O)Nc1ccc(Oc2ccnc(Nc3ccccc3)c2)c2ccccc12 [Example 19] ? Its IC50 was > 16000 nM
